- TARGET UNDER TEST: YOD1 (UniProt Q5VVQ6)
- Sequence (Q5VVQ6 whole entry, the tested form may be a part): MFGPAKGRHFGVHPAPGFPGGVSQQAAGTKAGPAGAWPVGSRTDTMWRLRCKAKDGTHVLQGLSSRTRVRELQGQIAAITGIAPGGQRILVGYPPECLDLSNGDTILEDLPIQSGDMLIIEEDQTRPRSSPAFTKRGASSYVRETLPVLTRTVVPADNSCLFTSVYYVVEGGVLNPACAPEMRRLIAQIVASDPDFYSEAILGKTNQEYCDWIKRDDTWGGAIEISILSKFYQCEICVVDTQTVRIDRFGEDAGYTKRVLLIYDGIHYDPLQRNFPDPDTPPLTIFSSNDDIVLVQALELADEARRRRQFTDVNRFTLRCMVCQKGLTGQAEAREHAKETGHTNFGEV
- EXPERIMENT DESCRIPTION: log2 ratio of Biotin-Ahx-Ub-VS probe labelling (fragment/DMSO); higher = less target engagement (more negative = stronger competition), active = hit call of the paper (q ≤ 0.05, log2 ratio ≤ -1)
- EXPERIMENTAL CONDITIONS: compound concentration: 200 uM; treatment time: 3 h
Label MET for high-side log2 ratio of Biotin-Ahx-Ub-VS probe labelling (at or above -0.07) and NOT MET for low-side log2 ratio of Biotin-Ahx-Ub-VS probe labelling (below it).

{"COMPOUND": "Cc1ccccc1OCC(=O)N1CCN(C(=O)CCl)CC1", "LABEL VALUE": "MET"}
{"COMPOUND": "O=C(CCl)N1CCN(C(=O)N2CCCCC2)CC1", "LABEL VALUE": "NOT MET"}
{"COMPOUND": "NS(=O)(=O)c1ccc(Cl)c(NC(=O)CCl)c1", "LABEL VALUE": "NOT MET"}
{"COMPOUND": "O=C(CCl)Nc1ccc(N2CCCC2=O)cc1", "LABEL VALUE": "MET"}
{"COMPOUND": "Cc1ccc(-c2nnc(C)[nH]2)c(NC(=O)CCl)c1", "LABEL VALUE": "NOT MET"}
{"COMPOUND": "Cl.O=C(CCl)NCCc1ncc(F)cc1F", "LABEL VALUE": "NOT MET"}
{"COMPOUND": "CC1CN(c2ccc(NC(=O)CCl)cc2)CC(C)O1 (stereo not given)", "LABEL VALUE": "NOT MET"}
{"COMPOUND": "O=C(CCl)N1CCC[C@@H]1c1ccon1", "LABEL VALUE": "NOT MET"}
{"COMPOUND": "O=C(CCl)NCc1ccc(N2CCOCC2)c(F)c1", "LABEL VALUE": "MET"}
{"COMPOUND": "O=C(CCl)N[C@H]1CCS(=O)(=O)c2ccccc21", "LABEL VALUE": "MET"}
{"COMPOUND": "O=C(CCl)N1CCC(O)(Cc2ccc(F)cc2)C1 (stereo not given)", "LABEL VALUE": "MET"}
{"COMPOUND": "O=C(CCl)Nc1ccc(F)cc1F", "LABEL VALUE": "NOT MET"}
{"COMPOUND": "Cc1cccc(N2CCC(NC(=O)CCl)C2=O)c1 (stereo not given)", "LABEL VALUE": "NOT MET"}
{"COMPOUND": "CS(=O)(=O)c1ccc(NC(=O)CCl)cc1", "LABEL VALUE": "MET"}

----------
- TARGET UNDER TEST: USP46 (UniProt P62068)
- Sequence (P62068 whole entry, the tested form may be a part): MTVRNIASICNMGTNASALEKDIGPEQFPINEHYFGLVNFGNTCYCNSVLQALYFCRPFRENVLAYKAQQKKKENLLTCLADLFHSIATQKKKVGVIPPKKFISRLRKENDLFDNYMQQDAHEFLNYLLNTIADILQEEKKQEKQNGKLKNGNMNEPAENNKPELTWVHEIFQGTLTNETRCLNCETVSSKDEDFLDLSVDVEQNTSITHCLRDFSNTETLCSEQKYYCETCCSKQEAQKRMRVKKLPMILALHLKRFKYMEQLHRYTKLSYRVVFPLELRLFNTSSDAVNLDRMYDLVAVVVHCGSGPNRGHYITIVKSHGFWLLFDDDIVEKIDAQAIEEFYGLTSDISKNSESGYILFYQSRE
- EXPERIMENT DESCRIPTION: log2 ratio of Biotin-Ahx-Ub-VS probe labelling (fragment/DMSO); higher = less target engagement (more negative = stronger competition), active = hit call of the paper (q ≤ 0.05, log2 ratio ≤ -1)
- EXPERIMENTAL CONDITIONS: compound concentration: 200 uM; treatment time: 3 h
MEASURED ENDPOINT: log2 ratio of Biotin-Ahx-Ub-VS probe labelling

{"MOLECULE": "O=C(CCl)NCCC1=CCCCC1", "ASSAY VALUE": -0.0411}
{"MOLECULE": "O=C(CCl)N1CCN(C(=O)Nc2ccccc2)CC1", "ASSAY VALUE": -0.0442}
{"MOLECULE": "CCC1c2ccsc2CCN1C(=O)CCl (stereo unspecified)", "ASSAY VALUE": -0.333}
{"MOLECULE": "CS(=O)(=O)c1ccc(NC(=O)CCl)cc1", "ASSAY VALUE": 0.119}
{"MOLECULE": "Cc1ccc2nnc(CNC(=O)CCl)n2c1", "ASSAY VALUE": -0.000756}
{"MOLECULE": "CCN(C(=O)CCl)C1CCS(=O)(=O)C1 (stereo unspecified)", "ASSAY VALUE": -0.128}
{"MOLECULE": "Cc1cc(C2CCCN2C(=O)CCl)nn1C.Cl (stereo unspecified)", "ASSAY VALUE": -0.144}
{"MOLECULE": "CC1CCc2onc(CNC(=O)CCl)c2C1 (stereo unspecified)", "ASSAY VALUE": 0.0919}
{"MOLECULE": "COc1ccc(CN(C)C(=O)CCl)cc1", "ASSAY VALUE": -0.0887}
{"MOLECULE": "Cc1ccn2cc(CNC(=O)CCl)nc2c1.Cl", "ASSAY VALUE": -0.0106}
{"MOLECULE": "O=C(CCl)NC1CCC2(CC1)OCCO2", "ASSAY VALUE": -0.121}
{"MOLECULE": "O=C(CCl)N1CCC(S(=O)(=O)c2ccc(F)cc2)CC1", "ASSAY VALUE": -0.0321}
{"MOLECULE": "O=C(CCl)Nc1ccc(F)cc1Cl", "ASSAY VALUE": -0.157}
{"MOLECULE": "Cc1ccc(CC(NC(=O)CCl)c2ccccn2)cc1.Cl (stereo unspecified)", "ASSAY VALUE": 0.168}
{"MOLECULE": "O=C(CCl)NCCc1cccc2ccccc12", "ASSAY VALUE": -0.0148}
{"MOLECULE": "Cc1ccc(CN(CCO)C(=O)CCl)cc1", "ASSAY VALUE": -0.105}

These measurements were taken from the supplement of paper PMC11732987.
